# maps each entry to its Percent Effect
Tested on: Wolbachia pipientis
Assay Details: Anti-Wolbachia Cell-Based Screen
Format: functional
Parameters: scale not given: in the data most compounds retested in dose-response had high values
Experimental Parameters: 5 µM
About 13,000 (27%) of roughly 48,000 compounds showed an effect of 50% or more. The list shows a part of the results.
Report only the number, with the unit % understood.

Measured Percent Effect of Cc1nn(C)c(Cl)c1C1CCCN1Cc1nnc(C2CC2)n1C (configuration not stated) : -12.44

---
Measured Percent Effect of CCOC1CC2(CCN(CCO)CC2)c2ccc(C)cc21 (configuration not stated) : 12.38

Measured Percent Effect of "Cc1ccc2c(c1)CCC21CCN(C(=O)CO)CC1" : -11.41

Measured Percent Effect of Cc1cnc(C)c(N2CCCC(CO)(Cc3ccccc3C)C2)n1 (configuration not stated) : -4.771

Measured Percent Effect of "CCCN(C(=O)c1cccnc1)c1nc2c(s1)CCc1c-2cnn1C" : 53.11

Measured Percent Effect of "Cc1cnc(N2CCN(C)CC2)nc1-c1ccnn1C" : -36.32

Measured Percent Effect of "Cc1ccc(-c2cc(C(F)(F)F)nc(N3CCOCC3)n2)s1" : 100.5

Measured Percent Effect of "Cc1nc(N2CCOCC2)nc(C)c1NS(=O)(=O)c1ccccc1" : 4.303

Measured Percent Effect of "CCc1cc(NCCC(F)(F)F)nc(N2CCOCC2)n1" : -15.1

Measured Percent Effect of "CCN1CCN(c2ncc(-c3cc(C)no3)c(-c3ccc(C)s3)n2)CC1" : -7.299

Measured Percent Effect of CC(=O)N1CCC2(CC1)CC(NC(=O)N(C)C)c1cc(C)ccc12 (configuration not stated) : 112.2

Measured Percent Effect of "Cc1noc(C)c1CN(C)Cc1cnc(N2CCOCC2)nc1" : -2.338

----------
System: Wolbachia pipientis
Assay Details: Anti-Wolbachia Cell-Based Screen
Type: functional
Set-up: scale not given: in the data most compounds retested in dose-response had high values
Experimental Parameters: 5 µM
The whole screen tested about 48,000 compounds, of which about 13,000 (27%) showed an effect of 50% or more. The list shows a part of the results.
Readout Kind: Percent Effect (%)
Report only the number, with the unit % understood.

Measured Percent Effect of CCN(CC)C(=O)N1CCN(C2=NCC(C)S2)CC1 (configuration not stated) : -3.513

Measured Percent Effect of Cc1cnn(CC2CCCCN2CCCS(N)(=O)=O)c1 (configuration not stated) : -7.264

Measured Percent Effect of CC(C)n1cc(CN2CCCN(C(=O)C3CCCN3C)CC2)cn1 (configuration not stated) : 115.6

Measured Percent Effect of CCc1nc(CN2CCCN(C(=O)C3CCOC3)CC2)cs1 (configuration not stated) : 3.952

Measured Percent Effect of CC(C)n1cc(CN2CCCN(C(=O)C3CCOC3)CC2)cn1 (configuration not stated) : 103.2

---
Measured Percent Effect of "CC(C)n1cc(CN2CCCN(C(=O)c3ccnn3C)CC2)cn1" : -7.528

Measured Percent Effect of "CC(C)n1cc(CN2CCCN(C(=O)C3(C)CCOCC3)CC2)cn1" : -0.3166

Measured Percent Effect of "COCCNc1ccccc1CNC(=O)NCc1ccc(C)s1" : -4.597

Measured Percent Effect of O=C1NCC(C(=O)N(Cc2ccc(C(F)(F)F)cc2)C2CC2)N1 (configuration not stated) : -7.127

Measured Percent Effect of CN(C(=O)CN1CCCC1c1cnn(C)c1)C1(C#N)CCCCC1 (configuration not stated) : 17.82

Measured Percent Effect of "O=C(O)c1ccnc(-c2ccnc(COc3ccccc3Cl)n2)c1" : -33.61

Measured Percent Effect of Cc1c(C(C)NCc2cnn(C)c2)cnn1-c1ccccc1 (configuration not stated) : 2.501

----------
# maps each entry to its Percent Effect
Test system: Wolbachia pipientis
Assay Details: Anti-Wolbachia Cell-Based Screen
Format: functional
Parameters: scale not given: in the data most compounds retested in dose-response had high values
Experimental Parameters: 5 µM
The whole screen tested about 48,000 compounds, of which about 13,000 (27%) showed an effect of 50% or more. The list shows a part of the results.
Report only the number, with the unit % understood.

Measured Percent Effect of "Cc1ccc(CNC(C)(C)c2noc(C(C)(C)C)n2)o1" : 107.5

Measured Percent Effect of NC(=O)c1ccc(NC(=O)CCN2CCCC(N3CCCC3)C2)cc1 (centres undefined) : -7.492

Measured Percent Effect of "Cc1ccc(CN(C)C(=O)CNC(C)(C)c2noc(C(C)(C)C)n2)o1" : 94

Measured Percent Effect of "CCn1nc(CC(C)C)cc1C(=O)N1CCC2(CC1)[C@H](O)C[C@@H]2O" : -14.19

Measured Percent Effect of "COc1nc(N2CCN(C(C)=O)CC2)ncc1Br" : -6.459

Measured Percent Effect of "Cc1csc(C(C)(C)NCCNS(C)(=O)=O)n1" : -2.878

Measured Percent Effect of "CCCn1ccc2cc(NC(=O)NCCn3cnnc3CC)ccc21" : -13.76

Measured Percent Effect of "CN(C)CCNC(=O)c1ccc2ccc(N(C)CC3CC3)n2c1" : 115.7

Measured Percent Effect of "Cc1ccc2c(ccn2CCC(=O)NC[C@@H]2CCCN3CCCC[C@H]23)c1" : -8.382

Measured Percent Effect of O=C(O)C(F)(F)F.O=C(O)C(F)(F)F.O=C1CC[C@]2(CC[C@@H](NC3CCOC3)CC2)N1Cc1ccncc1 (some centres undefined) : -47.26

Measured Percent Effect of "CO[C@H]1C[C@@H](O)C12CCN(C(=O)CCSCc1ccc(F)cc1)CC2" : 11.02

----------
Tested on: Wolbachia pipientis
Assay Details: Anti-Wolbachia Cell-Based Screen
Type: functional
Design: scale not given: in the data most compounds retested in dose-response had high values
Experimental Parameters: 5 µM
Among all 48,000 compounds or so, about 13,000 (27%) showed an effect of 50% or more. This is one part of the list.
# maps each entry to its Percent Effect
Report only the number, with the unit % understood.

Example molecules with recorded Percent Effect:
Measured Percent Effect of Cc1cc(C)n(C2CCCN(C(=O)CCNS(C)(=O)=O)C2)n1 (centres undefined) : 0.7954

Measured Percent Effect of "COCc1nc(CNC(=O)c2cc(C)c(C)[nH]c2=O)no1" : -2.692

Measured Percent Effect of CC(Oc1ccc(F)cc1F)C(=O)N1CCC2(CCCO2)CC1 (centres undefined) : -4.107

---
Measured Percent Effect of "COCCC(=O)N1CC2(CCN(c3ccccc3)C2)C1" : -36.12

Measured Percent Effect of "CCn1nc(C)cc1C(=O)OCCNC(=O)c1ccccc1" : -11.83

----------
System: Wolbachia pipientis
Assay Details: Anti-Wolbachia Cell-Based Screen
Assay type: functional
Set-up: scale not given: in the data most compounds retested in dose-response had high values
Experimental Parameters: 5 µM
Out of some 48,000 compounds screened, about 13,000 (27%) showed an effect of 50% or more. This is one part of the list.
# maps each entry to its Percent Effect
Report only the number, with the unit % understood.

Example molecules with recorded Percent Effect:
Measured Percent Effect of COCC(=O)N1CCC2(CC1)CC(COC)N(Cc1ccccn1)C2.O=C(O)C(F)(F)F (stereo not given) : 100.7

Measured Percent Effect of O=C(NCc1cccnc1)C1=NOC2(CCN(S(=O)(=O)C3CC3)C2)C1 (stereo not given) : -5.335

Measured Percent Effect of "Cl.O=C(Nc1ccccc1F)C1=NOC2(CCNCC2)C1" : 2.616

Measured Percent Effect of O=C(Nc1ccccc1)C1=NOC2(CCCN(C(=O)N3CCCC3)C2)C1 (stereo not given) : 131.1

Please examine the following record next.
Measured Percent Effect of COCC(=O)N1CCC2(CC1)COC(COCc1ccccn1)C2.O=C(O)C(F)(F)F (stereo not given) : -3.538

----------
Tested on: Wolbachia pipientis
Assay Details: Anti-Wolbachia Cell-Based Screen
Format: functional
Parameters: scale not given: in the data most compounds retested in dose-response had high values
Experimental Parameters: 5 µM
In all, about 48,000 compounds went through this assay and about 13,000 (27%) showed an effect of 50% or more. The list shows a part of the results.
Readout Kind: Percent Effect

Measured Percent Effect of COc1ccc(C(CC(=O)NCc2n[nH]c(N)n2)c2ccccc2)cc1 (configuration not stated) : -21.33%

Measured Percent Effect of "CCOc1cc(/C=C/c2ncc(C(=O)NC)s2)ccc1OC" : 34.03%

---
Measured Percent Effect of COc1ccc(OC)c(C2CCN(C3CCOCC3)C2)c1 (configuration not stated) : 1.409%

Measured Percent Effect of CNC(=O)c1cccc(CC2COCCN(Cc3ccc(C)o3)C2)n1 (configuration not stated) : 193.8%

Measured Percent Effect of "CCOc1cc(CNc2cc(-c3nc(C)no3)ccn2)ccc1OC" : -0.8232%

Measured Percent Effect of "CC(C)c1nc(S(=O)(=O)Nc2ccnn2C2CCCC2)c[nH]1" : -16.48%

Measured Percent Effect of "CN1C(=O)C2(CCN(S(=O)(=O)C3CC3)CC2)c2ccccc21" : -8.422%
